Origin of values: patent US6124327A

Measured IC50 (HIV-1 integrase (Human immunodeficiency virus type 1 group M subtype B))
Give bare numbers, in µM.

Use these answered entries as a reference point.
Molecule: CCCC(O)CCCCCCCc1cc(O)cc(O)c1 (stereo not shown)
IC50 [µM]: 93
--
Molecule: CCC/C=C/CCCCCCc1cc(O)cc(O)c1C(=O)OC(CCC)CCCCCCCc1cc(O)cc(O)c1 (stereo not shown)
IC50 [µM]: 3.5
--
Molecule: CCCC(CCCCCCCc1cc(O)cc(O)c1C(=O)OC(CCC)CCCCCCCc1cc(O)cc(O)c1)OC(C)=O (stereo not shown)
IC50 [µM]: 3.2

Query: State the recorded IC50 for this entry: CCCC(O)CCCCCCCc1cc(O)cc(O)c1C(=O)OC(CCC)CCCCCCCc1cc(O)cc(O)c1 (stereo not shown)
Reply: 6.1

* * *

Observed pIC50, system UniProt P04585.
Answers are plain numbers, as −log10 of the molar value.

Molecule: CCCC(O)CCCCCCCc1cc(O)cc(O)c1C(=O)OC(CCC)CCCCCCCc1cc(O)cc(O)c1 (stereo not shown)
Assay System: UniProt P04585
pIC50: 4.77

Now take the following molecule into account.
Query: Write down the reported pIC50 of CCCC(CCCCCCCc1cc(O)cc(O)c1C(=O)OC(CCC)CCCCCCCc1cc(O)cc(O)c1)OC(C)=O (stereo not shown) , test system: UniProt P04585.
Reply: 4.49
